Values from PubChem BioAssay (NCI)

# System: A498 renal
# MEASUREMENT_NOTES: NCI tumour cell line growth inhibition, 48 h
RECORDED_ENDPOINT: GI50

For the molecule "CC(=O)[O][Hg][c]1c(C)c(C)c(C)c(C)c1C" , what GI50 is on record?
2.68 µM

For the molecule "N#C/C(C(=S)Nc1ccccc1)=C1/NN=C2c3ccccc3C(=O)NN21" , what GI50 is on record?
21.3 µM

For the molecule "COc1ccc2cc(C(=O)/C=C/c3cccc(OC)c3OC)ccc2c1" , what GI50 is on record?
13.3 µM

For the molecule C[C@]12CC[C@@H]3c4ccc(O)cc4C[C@@H](CCCCCCCCCS(=O)CCCC(F)(F)C(F)(F)F)[C@H]3[C@@H]1CC[C@@H]2O (stereo not given in full) , what GI50 is on record?
> 100 µM

For the molecule CCCCNC(=O)NS(=O)(=O)c1ccc(N2N=C(c3ccc(C)cc3C)CC2c2ccc(N(C)C)cc2)cc1 (stereo not given) , what GI50 is on record?
3.9 µM

====

Please go through the items and note down their TGI.
# System: SN12C renal
# MEASUREMENT_NOTES: NCI tumour cell line growth inhibition, 48 h

For the compound COc1ccc(C2CC(=O)c3c(O)c(OC)c(OC)c(OC)c3O2)c(O)c1 (stereo not drawn) , what TGI is on record?
70.4 µM

For the compound "CC1=C2C3=C(C)C(=O)C(C)(C)CC[C@@]3(C)[C@]2(C)CCC(C)(C)C1=O" , what TGI is on record?
> 100 µM

For the compound "COc1ccc(-c2c(C#N)c(NC(=S)NC(=O)c3ccccc3)nc3c2CCCC3)cc1OC" , what TGI is on record?
> 100 µM

For the compound "COc1ccc(OC)c(/C=C/NC=O)c1" , what TGI is on record?
> 100 µM

For the compound "COc1ccc2c(c1)CCCc1cn[nH]c1-2" , what TGI is on record?
> 100 µM

For the compound O=C(CC(=O)N1N=C(c2ccccc2)C(N=Nc2ccc(Cl)cc2)C1=O)Nc1ccccc1Cl (stereo not drawn) , what TGI is on record?
> 100 µM

For the compound COC1(OC)C2(Cl)CCC1(Cl)C(OC(C)=O)C2 (stereo not drawn) , what TGI is on record?
> 100 µM

For the compound COc1ccc(OC(=O)O[C@H]2[C@H](O[C@H]3[C@@H](O)COC(O[C@H]4C[C@H]5[C@@H]6CC=C7C[C@@H](O)CC[C@]7(C)[C@H]6CC[C@]5(C)[C@H]4[C@H](C)C(=O)CCC(C)C)[C@@H]3OC(C)=O)OC[C@@H](O)[C@@H]2O)cc1 (stereo partly drawn) , what TGI is on record?
23.8 µM

For the compound CCOC(=O)NC(Nc1ccc(S(=O)(=O)Nc2ncccn2)cc1)(C(=O)OCC)C(F)(F)F (stereo not drawn) , what TGI is on record?
> 100 µM

For the compound "Cc1cc(NS(=O)(=O)c2ccc(NC(=O)c3cccc4c(=O)c5ccccc5[nH]c34)cc2)no1" , what TGI is on record?
> 100 µM

For the compound CC[C@@H]1/C=C/C=C/C[C@H](C)[C@@H](O)[C@](C)(O)C(=O)[C@H](C)[C@@H](O)[C@H](C)C(=O)[C@H](C)[C@@H](O)[C@H](C)/C=C/C(=O)O[C@H]2[C@@H](C)[C@@H](CC1)O[C@]1(O[C@H](CC(C)O)[C@H](C)CC1=O)[C@@H]2C (stereo partly drawn) , what TGI is on record?
8.72 µM

For the compound O=C(O)C1C(C(=O)O)C(C(=O)O)C1C(=O)O (stereo not drawn) , what TGI is on record?
> 100 µM

For the compound "O=C(O)C(Sc1ccc(Cl)cc1)Sc1ccc(Cl)cc1" , what TGI is on record?
> 100 µM

For the compound "CC(=O)O[C@@H]1C=C(C)[C@H](CBr)O[C@@]2(C)CC[C@H](Br)C(C)(C)[C@H]12" , what TGI is on record?
> 100 µM

For the compound "NS(=O)(=O)c1nnc(NC(=O)c2ccccc2)s1" , what TGI is on record?
> 100 µM

For the compound CCOC(=O)[C@H]1Nc2ccc(C)cc2C2c3ccccc3CC21 (stereo partly drawn) , what TGI is on record?
> 100 µM

For the compound "CC[C@]12C=CCN3CC[C@@]4(c5ccc(OC)cc5N(C)[C@H]4[C@@](O)(C(=O)OC)[C@@H]1OC(C)=O)[C@@H]32" , what TGI is on record?
> 200 µM

For the compound "NCCCCn1c2c(c3ccccc3c1=O)C(=O)c1ccccc1-2" , what TGI is on record?
0.244 µM

====

Please go through the items and note down their GI50.
# Tested on: UACC-257 melanoma
# MEASUREMENT_NOTES: NCI tumour cell line growth inhibition, 48 h

For the compound "COc1cc2c3c(n(CCCCl)c(=O)c2cc1OC)-c1ccccc1C3=O" , what GI50 is on record?
10.2 µM

For the compound C[C@]12CC[C@@H]3c4ccc(O)cc4C[C@@H](CCCCCCCCCS(=O)CCCC(F)(F)C(F)(F)F)[C@H]3[C@@H]1CC[C@@H]2O (stereo partly specified) , what GI50 is on record?
> 100 µM

For the compound "COc1cccc(NCc2nnc(Nc3ccc(Cl)cc3)c3ccccc23)c1" , what GI50 is on record?
2.04 µM

For the compound "CC(C)CSc1nc(Nc2ccccc2)c(C#N)c(-c2ccc(F)cc2)n1" , what GI50 is on record?
10.3 µM

For the compound "CC(C)(C)OC(=O)N(CCCN(CCn1c2c(c3ccccc3c1=O)C(=O)c1ccccc1-2)C(=O)OC(C)(C)C)CCn1c2c(c3ccccc3c1=O)C(=O)c1ccccc1-2" , what GI50 is on record?
> 50 µM

For the compound "CCCNC(=S)N/N=C(\C)c1ccccn1" , what GI50 is on record?
0.038 µM

====

# Test system: SF-295 CNS
# MEASUREMENT_NOTES: NCI tumour cell line growth inhibition, 48 h; in the data active means GI50 below about 0.43 µM; inactive means the rest
Choose the fitting class; nothing outside T = active, F = inactive is accepted.

Record lookup: outcome of this test for "COc1ccc(/C(=N/Nc2ccc([N+](=O)[O-])cc2)Sc2cc(Cl)c(C)cc2S(N)(=O)=O)cc1" ?
F

Record lookup: outcome of this test for "Cn1cc(-c2csc(-c3cccc(F)c3)n2)c2cccnc21" ?
F

Record lookup: outcome of this test for C[C@]12CC[C@@H]3c4ccc(O)cc4C[C@@H](CCCCCCCCCS(=O)CCCC(F)(F)C(F)(F)F)[C@H]3[C@@H]1CC[C@@H]2O (stereo not given in full) ?
F

Record lookup: outcome of this test for "COc1cccc(NCc2nnc(Nc3ccc(Cl)cc3)c3ccccc23)c1" ?
F

Record lookup: outcome of this test for "COc1ccc(-n2c(SCc3cc(OC)c(OC)c(OC)c3)nc3ccc(C)cc3c2=O)cc1" ?
F

Record lookup: outcome of this test for COc1ccc(C2CC(=O)c3c(OC)cc(OC)cc3O2)cc1 (stereo not given) ?
F

Record lookup: outcome of this test for "COc1ccc(-c2cc3c(nn2)-c2ccccc2C3=O)cc1" ?
F

Record lookup: outcome of this test for "Cn1cc(C2=C(c3cn(CCCN=C(N)N)c4ccccc34)C(=O)NC2=O)c2ccccc21" ?
F

Record lookup: outcome of this test for COc1ccc(OC(=O)O[C@H]2[C@H](O[C@H]3[C@@H](O)COC(O[C@H]4C[C@H]5[C@@H]6CC=C7C[C@@H](O)CC[C@]7(C)[C@H]6CC[C@]5(C)[C@H]4[C@H](C)C(=O)CCC(C)C)[C@@H]3OC(C)=O)OC[C@@H](O)[C@@H]2O)cc1 (stereo not given in full) ?
T

Record lookup: outcome of this test for "COc1cc(C(=O)O[C@H](C(N)=O)[C@]2(C)CO2)c2ccccc2c1" ?
F

Record lookup: outcome of this test for "COc1cc2c3c(n(CCCBr)c(=O)c2cc1OC)-c1ccc(NC(C)=O)cc1C3=O" ?
F

Record lookup: outcome of this test for "CC(=O)[O][Hg][c]1c(C)c(C)c(C)c(C)c1C" ?
F

Record lookup: outcome of this test for "CCCNC(=S)N/N=C(\C)c1ccccn1" ?
T

Record lookup: outcome of this test for "COc1ccc(C(=O)/C=C/c2cccnc2Nc2cc(OC)c(OC)c(OC)c2)cc1" ?
F

Record lookup: outcome of this test for "COc1cc2c(/C=C3/C(=O)Nc4cccc(Cl)c43)c(Cl)n(Cc3ccccc3)c2cc1C" ?
F

====

# System: COLO 205 colon
# MEASUREMENT_NOTES: NCI tumour cell line growth inhibition, 48 h; in the data active means GI50 below about 0.43 µM; inactive means the rest
Choose the fitting class; nothing outside 1 (yes) = active, 0 (no) = inactive is accepted.

Record lookup: outcome of this test for "COc1ccc(-c2nc(-c3nc4ccc(C)cc4[nH]3)c3ccccn23)cc1" ?
0 (no)

Record lookup: outcome of this test for "CN1C(NC(=O)c2ccc(Cl)nc2)=NS(=O)(=O)c2cc(Cl)ccc21" ?
0 (no)

Record lookup: outcome of this test for COc1cc([C@@H]2c3cc4c(cc3C(O[C@@H]3O[C@@H]5CO[C@@H](c6cccs6)OC5[C@H](O)[C@H]3O)C3COC(=O)[C@@H]32)OCO4)cc(OC)c1O (some centres not stated) ?
1 (yes)

Record lookup: outcome of this test for "CC(C)(C)OC(=O)N(CCCN(CCn1c2c(c3ccccc3c1=O)C(=O)c1ccccc1-2)C(=O)OC(C)(C)C)CCn1c2c(c3ccccc3c1=O)C(=O)c1ccccc1-2" ?
0 (no)

Record lookup: outcome of this test for "C=C1C(=O)O[C@H]2[C@H]1CC/C(COC(=O)/C=C\C(=O)NCc1ccc(Cn3c(=O)sn(-c4ccc(C#N)cc4)c3=O)cc1)=C\CC[C@@]1(C)O[C@@H]21" ?
0 (no)

Record lookup: outcome of this test for "COc1cccc(NCc2nnc(Nc3ccc(Cl)cc3)c3ccccc23)c1" ?
0 (no)

Record lookup: outcome of this test for CCCCCCCCCCC(O)C1CCC(C2CCC(C(O)CCCCC(O)CCCCCC(O)CC3=CC(C)OC3=O)O2)O1 (configuration not stated) ?
0 (no)
